Each entry below carries its reported pIC50.
assayedSystem: recombinant human GR (Homo sapiens, UniProt P04150)
Construct: purchased Panvera/Invitrogen P2812 (kit P2893)
Sequence (P04150 whole entry): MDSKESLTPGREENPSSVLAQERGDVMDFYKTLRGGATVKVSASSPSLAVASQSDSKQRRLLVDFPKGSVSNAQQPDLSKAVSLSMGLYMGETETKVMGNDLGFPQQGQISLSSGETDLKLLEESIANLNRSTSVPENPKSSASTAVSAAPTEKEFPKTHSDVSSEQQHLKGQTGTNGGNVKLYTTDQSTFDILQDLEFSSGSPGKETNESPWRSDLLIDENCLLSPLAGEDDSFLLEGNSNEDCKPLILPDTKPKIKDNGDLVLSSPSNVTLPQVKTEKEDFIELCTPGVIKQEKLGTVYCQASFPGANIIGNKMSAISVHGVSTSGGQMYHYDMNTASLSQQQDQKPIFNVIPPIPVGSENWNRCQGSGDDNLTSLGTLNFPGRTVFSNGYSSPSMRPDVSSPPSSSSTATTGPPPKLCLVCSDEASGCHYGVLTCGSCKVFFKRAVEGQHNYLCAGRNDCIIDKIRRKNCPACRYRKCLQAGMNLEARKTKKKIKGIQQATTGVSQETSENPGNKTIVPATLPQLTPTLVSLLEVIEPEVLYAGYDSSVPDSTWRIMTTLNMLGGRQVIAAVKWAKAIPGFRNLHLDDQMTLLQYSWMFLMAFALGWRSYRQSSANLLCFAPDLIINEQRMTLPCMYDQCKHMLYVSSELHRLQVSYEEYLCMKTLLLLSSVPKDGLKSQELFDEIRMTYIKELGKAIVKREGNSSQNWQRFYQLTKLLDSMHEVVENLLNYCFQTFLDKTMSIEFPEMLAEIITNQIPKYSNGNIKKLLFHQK
procedureText: Human Glucocorticoid Receptor (GR) Assay (fluorescence polarization, Panvera/Invitrogen kit)
Format: binding
conditions: fluorescence polarization; GS Red tracer; 2 hours at room temperature; 100% control 10 μM Dexamethasone; read-out: Inhibition of GR binding, IC50
Recall that pIC50 is obtained by taking minus log10 of the concentration measured in molar.

moleculeSmiles	pIC50
CCC(=O)O[C@]1(C(=O)SCC#N)CC[C@H]2[C@@H]3CCC4=Cc5c(cnn5-c5ccc(F)nc5)C[C@]4(C)[C@H]3[C@@H](O)C[C@@]21C	8.68
CN(C)C(=O)SC(=O)[C@@]1(OC(=O)c2ccco2)CC[C@H]2[C@@H]3CCC4=Cc5c(cnn5-c5cc(F)cc(F)c5)C[C@]4(C)[C@H]3[C@@H](O)C[C@@]21C	7.23
COCC(=O)O[C@]1(C(=O)SC)CC[C@H]2[C@@H]3CCC4=Cc5c(cnn5-c5ccc(F)nc5)C[C@]4(C)[C@H]3[C@@H](O)C[C@@]21C	8.96
Cc1cc(C(=O)O[C@]2(C(=O)SCC#N)CC[C@H]3[C@@H]4CCC5=Cc6c(cnn6-c6ccc(F)cc6)C[C@]5(C)[C@H]4[C@@H](O)C[C@@]32C)no1	8.16

API: the following record is the query input.
# input For recombinant human GR (Homo sapiens, UniProt P04150), give the measured pIC50 of the entry CCC(=O)O[C@]1(C(=O)SCC#N)CC[C@H]2[C@@H]3CCC4=Cc5c(cnn5-c5ccc(F)cc5)C[C@]4(C)[C@@]3(F)[C@@H](O)C[C@@]21C
# output 8.34

Sourced from patent US8163724B2
